compounds and their reported MIC
# Tested on: pathogenic bacteria
# Assay: MIC by microdilution broth method (NCCLS M7-A4), in vitro antibacterial activity
# Assay type: cell-based
# Recorded conditions: Staphylococcus aureus, Organism A: Staphylococcus aureus OC4172; read-out: MIC
# Method: Minimal inhibitory concentration (MIC) has been an indicator of in vitro antibacterial activity widely used in the art. The in vitro antimicrobial activity of the compounds was determined by the microdilution broth method following the test method from the National Committee for Clinical Laboratory Standards (NCCLS). […] Following inoculation of the microdilution trays, the trays are incubated at 35° C. for 16-20 hours and then read. […]
Parameter: MIC (µg/mL)

1. N#CC(CN)=C1CCN(c2c(F)cc3c(=O)c(C(=O)O)cn(C4CC4)c3c2OC(F)F)CC1    0.06
2. O=C(O)C(F)(F)F.O=C(O)c1cn(C2CC2)c2nc(N3CCC(=C(F)CN4CCNCC4)CC3)c(F)cc2c1=O    2
3. N#CC(CN)=C1CCN(c2nc3c(cc2F)c(=O)c(C(=O)O)cn3C2CC2)CC1    0.25
4. COc1c(N2CCC/C(=C(/C)CN)C2)c(F)cc2c(=O)c(C(=O)O)cn(C3CC3)c12    0.25
5. C/C(CN)=C1/CCCN(c2nc3c(cc2F)c(=O)c(C(=O)O)cn3C2CC2)C1    0.5
